Target: hTLR7 (Homo sapiens, UniProt Q9NYK1)
Sequence (Q9NYK1 27-1049): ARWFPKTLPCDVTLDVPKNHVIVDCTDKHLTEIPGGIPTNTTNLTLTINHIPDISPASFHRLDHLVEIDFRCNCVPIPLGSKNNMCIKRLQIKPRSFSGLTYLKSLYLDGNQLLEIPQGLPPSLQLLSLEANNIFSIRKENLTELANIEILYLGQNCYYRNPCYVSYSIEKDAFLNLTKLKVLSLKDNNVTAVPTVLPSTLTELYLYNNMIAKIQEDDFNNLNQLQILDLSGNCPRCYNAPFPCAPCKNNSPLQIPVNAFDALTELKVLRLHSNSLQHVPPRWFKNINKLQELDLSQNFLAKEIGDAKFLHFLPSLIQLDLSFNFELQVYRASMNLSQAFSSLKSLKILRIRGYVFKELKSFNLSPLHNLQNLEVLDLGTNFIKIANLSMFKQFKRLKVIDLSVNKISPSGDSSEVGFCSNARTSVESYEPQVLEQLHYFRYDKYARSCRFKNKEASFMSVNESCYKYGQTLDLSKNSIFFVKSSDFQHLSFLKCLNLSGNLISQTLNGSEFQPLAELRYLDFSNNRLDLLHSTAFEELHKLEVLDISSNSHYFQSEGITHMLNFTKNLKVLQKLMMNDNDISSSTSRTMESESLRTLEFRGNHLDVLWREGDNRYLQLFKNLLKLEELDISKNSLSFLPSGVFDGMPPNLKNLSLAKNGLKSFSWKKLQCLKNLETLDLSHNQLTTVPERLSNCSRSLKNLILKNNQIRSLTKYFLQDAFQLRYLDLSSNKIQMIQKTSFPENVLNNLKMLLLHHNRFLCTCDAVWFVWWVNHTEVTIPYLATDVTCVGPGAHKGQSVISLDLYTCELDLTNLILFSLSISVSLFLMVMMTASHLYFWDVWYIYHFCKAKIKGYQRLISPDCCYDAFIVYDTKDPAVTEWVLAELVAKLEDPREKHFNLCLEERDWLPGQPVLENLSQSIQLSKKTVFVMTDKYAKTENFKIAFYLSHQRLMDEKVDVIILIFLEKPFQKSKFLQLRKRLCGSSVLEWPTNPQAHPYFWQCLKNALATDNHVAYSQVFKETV
Test: TLR7 reporter assay in HEK-Blue cells (SEAP, Quanti-Blue)
Conditions: 24 hours incubation, SEAP absorbance at 620 nm
pEC50: −log10 of the molar value.
result.type: pEC50

compound: CCOCc1nc2c(N)nc3ccccc3c2n1CC(C)(C)OCCNC(=O)CSC
pEC50: 6.00 to 7.00
//
compound: CCOCc1nc2c(N)nc3ccccc3c2n1CC(C)(C)OCCCCN1CCN(CCSC)CC1
pEC50: 6.00 to 7.00
//
compound: CCOCc1nc2c(N)nc3ccccc3c2n1CC(C)(C)OCCNC(=O)CN1CCN(C)CC1
pEC50: 6.00 to 7.00

[Q] Which measured pEC50 value corresponds to `CCOCc1nc2c(N)nc3ccccc3c2n1CC(C)(C)OCCCCN1CCN(CC(C)(C)SC)CC1` ?
[A] 7.00 to 8.00

[Q] Which measured pEC50 value corresponds to `CCOCc1nc2c(N)nc3ccccc3c2n1CC(C)(C)OCCN1CCN(C)CC1` ?
[A] > 8.00

[Q] Which measured pEC50 value corresponds to `CCOCc1nc2c(N)nc3ccccc3c2n1CC(C)(C)OCCCC(=O)N1CCN(C)CC1` ?
[A] 7.00 to 8.00

[Q] Which measured pEC50 value corresponds to `CCOCc1nc2c(N)nc3ccccc3c2n1CC(C)(C)OCCCCCCN1CCN(C)CC1` ?
[A] > 8.00

[Q] Which measured pEC50 value corresponds to `CCOCc1nc2c(N)nc3ccccc3c2n1CC(C)(C)OCCCCN1CCNCC1` ?
[A] 7.00 to 8.00

[Q] Which measured pEC50 value corresponds to `CCOCc1nc2c(N)nc3ccccc3c2n1CC(C)(C)OC(=O)CN` ?
[A] 6.00 to 7.00

[Q] Which measured pEC50 value corresponds to `CCOCc1nc2c(N)nc3ccccc3c2n1CC(C)(C)OCCNC(=O)C(C)(C)O` ?
[A] 6.00 to 7.00

[Q] Which measured pEC50 value corresponds to `CCOCc1nc2c(N)nc3ccccc3c2n1CC(C)(C)OCCCCO` ?
[A] 7.00 to 8.00

Hey, just so you know, these numbers are from patent US20260193250A1.
